Tested on: KAI3 (IL-2 2.5 ng/mL);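 note: normalised to DMSO-only wells as negative and benzethonium chloride as positive control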
Test: percent inhibition of viability; higher = more inhibition
Details: 72 h; 10000 nM
Reported Property: percent inhibition of viability (%)
// note: answer is a bare numeric in %

**Q:** Provide percent inhibition of viability value for the following compound: CS(=O)(=O)c1ccc(C2=C(c3ccccc3)C(=O)OC2)cc1 [Rofecoxib] (max concentration tested 10000 nM)
**A:** -3.77

**Q:** Name the recorded percent inhibition of viability of the compound listed here: Cc1cn(-c2cc(NC(=O)c3ccc(C)c(Nc4nccc(-c5cccnc5)n4)c3)cc(C(F)(F)F)c2)cn1 [Nilotinib] (max concentration tested 10000 nM)
**A:** 20

**Q:** Using known records, supply percent inhibition of viability for Cn1nnc2c(C(N)=O)ncn2c1=O [Temozolomide] (max concentration tested 100000 nM)
**A:** -11.7

**Q:** Tell me its percent inhibition of viability given O=NN(CCCl)C(=O)NC1CCCCC1 [Lomustine] (max concentration tested 10000 nM) as the entry.
**A:** -3.54

// provenance: the supplement of paper PMC5908809
